Test system: chamomile (scentless chamomile, Matricaria inodora)
Test protocol: Test E pre-/postemergence plant response
Format: in vivo
Test parameters: Tripleurospermum inodorum, post-emergence; 125 g ai/ha, Postemergence; scale 0 to 100; read-out: Plant response rating, Chamomile
Recorded metric: pest or weed control at 125 g/ha (%)
The response must be a number in % with no trailing unit.

## Input Read the entry Fc1cccc(Oc2ncc(Br)cn2)c1-c1cc(C(F)F)no1 and write its reported pest or weed control at 125 g/ha.
## Output 30

###

Test system: lambsquarters (Chenopodium album)
Test protocol: Test D pre-/postemergence plant response
Format: in vivo
Test parameters: Postemergence, 125 g ai/ha; scale 0 to 100, 0 no effect, 100 complete control
# key: entry, value: Plant response rating, Lambsquarters
Answer with a bare number; do not write a unit.

Reference set, count: 2
{"Compound": "FC(Cl)(Cl)c1cc(-c2ccccc2Oc2ncc(Cl)cn2)no1 [Compound 198]", "Experimental result": 75}
{"Compound": "Fc1ccc(Oc2ncc(Cl)cn2)c(-c2cc(C(F)F)on2)c1Cl [Compound 96]", "Experimental result": 95}

## Input Specify the recorded Plant response rating, Lambsquarters for FC(F)(F)c1cc(-c2ccccc2Oc2ncc(Cl)cn2)ncn1 [Compound 54] , system: lambsquarters (Chenopodium album).
## Output 70

## Input State recorded Plant response rating, Lambsquarters with lambsquarters (Chenopodium album), entry Clc1cnc(Oc2ccccc2-c2cc(C3CC3)on2)nc1 [Compound 183] , no comment.
## Output 75

## Input Return reported Plant response rating, Lambsquarters for target or system lambsquarters (Chenopodium album), item FCc1cc(-c2ccccc2Oc2ncc(Cl)cn2)on1 [Compound 224] .
## Output 85

## Input Param request: Plant response rating, Lambsquarters | system lambsquarters (Chenopodium album) | item FCc1cc(-c2c(F)cccc2Oc2ncc(Cl)cn2)no1 [Compound 57]
## Output 80

## Input # return Plant response rating, Lambsquarters of Clc1cnc(Oc2ccccc2-c2ccon2)nc1 [Compound 185] (system: lambsquarters (Chenopodium album))
## Output 20

###

System: Italian ryegrass (Lolium multiflorum)
Test protocol: Test B pre-/postemergence plant response
Type: in vivo
Test parameters: Postemergence, 1000 g ai/ha; 0 to 100 scale (0 no effect, 100 complete control)
Recorded metric: Plant response rating, Ryegrass, Italian

{"Substance smiles": "FCc1cc(-c2c(F)cccc2Oc2ncc(Cl)cn2)no1", "Experimental result": 80}
{"Substance smiles": "FCc1cc(-c2c(Br)cccc2Oc2ncc(Cl)cn2)no1", "Experimental result": 100}
{"Substance smiles": "Fc1cnc(Oc2ccccc2-c2cc(Cl)sn2)nc1", "Experimental result": 30}

Continue with the next compound.
## Input Give Italian ryegrass (Lolium multiflorum) Plant response rating, Ryegrass, Italian for the following compound: COC(=O)c1cc(-c2ccccc2Oc2ncc(Cl)cn2)no1
## Output 0

###

List of Ragweed plant response rating values.
Test system: ragweed (common ragweed, Ambrosia elatior)
Test protocol: Test B pre-/postemergence plant response
Format: in vivo
Test parameters: Preemergence, 125 g ai/ha; 0 to 100 scale (0 no effect, 100 complete control)
Text: […]
Just the number.

## Input Name the recorded Ragweed plant response rating of the molecule listed here: CC(=O)c1cc(-c2ccccc2Oc2ncc(Cl)cn2)no1
## Output 0

## Input Name the recorded Ragweed plant response rating of the molecule listed here: N#Cc1cccc(Oc2ncc(Cl)cn2)c1-c1cc(C(F)(F)F)on1
## Output 20

## Input Using known records, supply Ragweed plant response rating for FC(F)(F)C(F)(F)c1cc(-c2ccccc2Oc2ncc(Cl)cn2)no1
## Output 0

## Input Read off the recorded Ragweed plant response rating for FC(Cl)(Cl)c1cc(-c2ccccc2Oc2ncc(Cl)cn2)no1
## Output 10

## Input Give me measured Ragweed plant response rating, please, for this molecule: Cc1c(-c2ccccc2Oc2ncc(Cl)cn2)noc1C(F)(F)F
## Output 0

## Input Give Ragweed plant response rating for Fc1cccc(Oc2ncc(Cl)cn2)c1-c1cc(C(F)F)no1
## Output 50

## Input Please indicate Ragweed plant response rating recorded for Cc1csc(-c2ccccc2Oc2ncc(Cl)cn2)c1
## Output 0

## Input Please look at this molecule and report its Ragweed plant response rating: Cc1cc(-c2ccccc2Oc2ncc(Cl)cn2)no1
## Output 0

## Input Given Cn1nc(-c2c(Br)cccc2Oc2ncc(Cl)cn2)cc1C(F)(F)F , respond with its Ragweed plant response rating.
## Output 0

## Input Using the record for Clc1cnc(Oc2ccccc2-c2cc(Cl)ccn2)nc1 , state its measured Ragweed plant response rating.
## Output 0
